# EXPERIMENT_SUMMARY: Solubility in aqueous solution
# Type: physicochemical
# STUDY_CONDITIONS: phosphate buffered saline; 25° C.
MEASURED_PARAMETER: solubility

>>> experimental_result("CC1=C(N2CC2)C(=O)C(CO)=C(N2CC2)C1=O")
"> 500 µg/mL"

Entry source: patent US6156744A
